# EXPERIMENT SUMMARY: Oral bioavailability in cynomolgus monkey at 2 mg/kg, po
# Format: ADME, organism-based, Macaca fascicularis
# CONDITION NOTES: in vivo
REPORTED PROPERTY: bioavailability (%)
Answers are plain numbers, in %.

Exercise: Query (compound): `C[C@@H]1CC(c2cnc3c(C#N)nn([C@H](C)c4ccc(Cl)cc4Cl)c3n2)=CC[C@@H]1N1CCC[C@H]1CO` ; field requested: bioavailability
Key: 30

----------
# EXPERIMENT SUMMARY: Terminal half-life in dog at 0.5 mg/kg, iv
# Type: ADME, organism-based, Canis lupus familiaris
# CONDITION NOTES: in vivo, read-out: beta t1/2 (converted)
REPORTED PROPERTY: half-life (min)
Give bare numbers, in min.

Exercise: For the compound shown here, `C[C@@H]1CC(c2cnc3c(C#N)nn([C@H](C)c4ccc(Cl)cc4Cl)c3n2)=CC[C@@H]1N1CCC[C@H]1CO` , give the reported half-life.
Key: 984

----------
# MEASUREMENT TARGET: Cytochrome P450 1A2 (Homo sapiens, UniProt P05177)
# Sequence (P05177 whole entry): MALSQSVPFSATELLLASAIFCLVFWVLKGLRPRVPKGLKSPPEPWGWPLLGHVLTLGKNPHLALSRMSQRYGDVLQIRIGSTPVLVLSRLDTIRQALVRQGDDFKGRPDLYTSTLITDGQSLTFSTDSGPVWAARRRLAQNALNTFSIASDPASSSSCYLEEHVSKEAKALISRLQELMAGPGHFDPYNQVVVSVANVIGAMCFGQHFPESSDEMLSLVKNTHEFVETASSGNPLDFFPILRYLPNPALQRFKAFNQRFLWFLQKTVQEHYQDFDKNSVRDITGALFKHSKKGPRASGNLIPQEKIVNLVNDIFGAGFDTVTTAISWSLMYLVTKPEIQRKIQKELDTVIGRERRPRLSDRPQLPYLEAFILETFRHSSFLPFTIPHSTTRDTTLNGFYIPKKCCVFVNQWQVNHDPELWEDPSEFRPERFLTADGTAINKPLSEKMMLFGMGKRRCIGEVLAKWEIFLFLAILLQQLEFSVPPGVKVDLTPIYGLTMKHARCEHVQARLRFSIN
# EXPERIMENT SUMMARY: Inhibition of CYP1A2 (unknown origin)
# Type: ADME
pIC50: −log10 of the molar value.
REPORTED PROPERTY: pIC50

Exercise: Lab note: need pIC50 for `C[C@@H]1CN(c2cnc3c(C#N)nn([C@H](C)c4ccc(Cl)cc4Cl)c3n2)CC[C@@H]1N1CCC[C@H]1CO` on Cytochrome P450 1A2 (Homo sapiens, UniProt P05177), anyone have it?
Key: < 5.00

----------
# EXPERIMENT SUMMARY: Half-life in mouse
# Assay type: ADME, organism-based
# CONDITION NOTES: in vivo
REPORTED PROPERTY: half-life (h)
Numbers only, in h.

Exercise: Give the measured half-life of `C[C@@H]1CC(c2cnc3c(C#N)nn([C@H](C)c4ccc(Cl)cc4Cl)c3n2)=CC[C@@H]1N1CCC[C@H]1C` .
Key: 30.3

Shift focus to the following entry.
Exercise: Look up half-life: `C[C@@H]1CC(c2cnc3c(C#N)nn([C@H](C)c4ccc(Cl)cc4Cl)c3n2)=CC[C@@H]1N1CCC[C@H]1CO`
Key: 7.6

----------
# EXPERIMENT SUMMARY: Bioavailability in rat
# Type: ADME, organism-based
# CONDITION NOTES: in vivo
REPORTED PROPERTY: bioavailability (%)
Answers are plain numbers, in %.

Exercise: State the recorded bioavailability for this entry: CC(c1ccc(Cl)cc1Cl)n1ncc2ncc(C3=CCN(C(=O)[C@H]4CCCCN4)CC3)nc21 (some centres not stated)
Key: 25

# evaluate next
Exercise: Query (compound): `C[C@@H](Nc1cncc(C2=CCN(C(=O)[C@H]3CCCCN3)CC2)n1)c1ccc(Cl)cc1Cl` ; field requested: bioavailability
Key: 7

----------
# MEASUREMENT TARGET: UniProtKB P11712
# Sequence (P11712 whole entry): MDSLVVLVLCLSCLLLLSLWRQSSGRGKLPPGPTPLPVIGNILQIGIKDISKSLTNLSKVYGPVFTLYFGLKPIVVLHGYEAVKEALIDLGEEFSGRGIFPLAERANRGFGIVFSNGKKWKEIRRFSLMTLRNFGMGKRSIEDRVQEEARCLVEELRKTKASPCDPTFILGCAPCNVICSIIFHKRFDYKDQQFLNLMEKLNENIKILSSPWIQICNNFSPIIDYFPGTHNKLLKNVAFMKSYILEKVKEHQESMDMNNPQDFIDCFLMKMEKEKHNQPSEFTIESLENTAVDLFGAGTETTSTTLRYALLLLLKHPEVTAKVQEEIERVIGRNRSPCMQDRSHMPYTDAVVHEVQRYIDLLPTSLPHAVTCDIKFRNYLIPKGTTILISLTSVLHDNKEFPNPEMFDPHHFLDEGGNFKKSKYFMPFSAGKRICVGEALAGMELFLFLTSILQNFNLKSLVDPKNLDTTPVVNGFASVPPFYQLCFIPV
REPORTED PROPERTY: IC50

Exercise: Param readout = IC50; param system = UniProtKB P11712; param query = `C[C@@H]1CN(c2cnc3c(C#N)nn([C@H](C)c4ccc(Cl)cc4Cl)c3n2)CC[C@@H]1N1CCC[C@H]1CO` ; response: value
Key: > 10 µM

Where these numbers come from: ChEMBL document CHEMBL4364292
